Assay: Multiple rising dose Phase 1 PK, healthy subjects, day 14 (young males unless stated)
Assay type: in vivo, human
Details: male, human, plasma, oral, 100 mg, 100 mg QD; read-out: t1/2 (converted)
observation-type: half-life (days)
Just the number in days, nothing appended.

Can you look up the measured half-life of O=C(Nc1ccc(C[C@@H]2CC[C@H]([C@H](O)c3ccccc3)N2)cc1)[C@@H]1CCc2nccc(=O)n21 for me? 3.32

====

Assay: Single rising oral dose Phase 1 PK, healthy adults (young males unless stated)
Type: in vivo, human
Settings: male, human, plasma, oral, 20 mg, single 20 mg
observation-type: Cmax (ng/mL)
Just the number in ng/mL, nothing appended.

Can you look up the measured Cmax of O=C(Nc1ccc(C[C@@H]2CC[C@H]([C@H](O)c3ccccc3)N2)cc1)[C@@H]1CCc2nccc(=O)n21 [Vibegron] for me? 5.25

====

Experiment: Single rising oral dose Phase 1 PK, healthy adults (young males unless stated)
Type: in vivo, human
Details: male, human, plasma, oral, 20 mg, single 20 mg; read-out: t1/2 (converted)
observation-type: half-life (h)
Just the number in h, nothing appended.

Can you look up the measured half-life of O=C(Nc1ccc(C[C@@H]2CC[C@H]([C@H](O)c3ccccc3)N2)cc1)[C@@H]1CCc2nccc(=O)n21 for me? 64.2

====

Experiment: Effect of food on oral absorption
Type: in vivo, human
Conditions: female, human, plasma, oral, 150 mg, 150 mg multiple dose day 14, middle-aged females, fed
observation-type: Tmax (h)
Just the number in h, nothing appended.

Can you look up the measured Tmax of O=C(Nc1ccc(C[C@@H]2CC[C@H]([C@H](O)c3ccccc3)N2)cc1)[C@@H]1CCc2nccc(=O)n21 for me? 6

====

Experiment: Effect of food on oral absorption
Format: in vivo, human
Details: male, human, plasma, oral, 50 mg, single 50 mg, Japanese young males, fed; read-out: AUC0-24
observation-type: AUC(0-t) (ng·h/mL)
Just the number in ng·h/mL, nothing appended.

Can you look up the measured AUC(0-t) of O=C(Nc1ccc(C[C@@H]2CC[C@H]([C@H](O)c3ccccc3)N2)cc1)[C@@H]1CCc2nccc(=O)n21 for me? 226

====

Experiment: Multiple rising dose Phase 1 PK, healthy subjects, day 14 (young males unless stated)
Assay type: in vivo, human
Details: both sexes, human, plasma, oral, 100 mg, 100 mg QD, elderly male and female; read-out: AUC0-24
observation-type: AUC(0-t) (ng·h/mL)
Just the number in ng·h/mL, nothing appended.

Can you look up the measured AUC(0-t) of O=C(Nc1ccc(C[C@@H]2CC[C@H]([C@H](O)c3ccccc3)N2)cc1)[C@@H]1CCc2nccc(=O)n21 [Vibegron] for me? 2230

====

Test: Multiple rising dose Phase 1 PK, healthy subjects, day 14 (young males unless stated)
Format: in vivo, human
Conditions: male, human, plasma, oral, 150 mg, 150 mg QD; read-out: Cmax
observation-type: Cmax (ng/mL)
Just the number in ng/mL, nothing appended.

Can you look up the measured Cmax of O=C(Nc1ccc(C[C@@H]2CC[C@H]([C@H](O)c3ccccc3)N2)cc1)[C@@H]1CCc2nccc(=O)n21 for me? 305

====

Experiment: Multiple rising dose Phase 1 PK, healthy subjects, day 14 (young males unless stated)
Format: in vivo, human
Conditions: male, human, plasma, oral, 100 mg, 100 mg QD; read-out: Cmax
observation-type: Cmax (µg/mL)
Just the number in µg/mL, nothing appended.

Can you look up the measured Cmax of O=C(Nc1ccc(C[C@@H]2CC[C@H]([C@H](O)c3ccccc3)N2)cc1)[C@@H]1CCc2nccc(=O)n21 [Vibegron] for me? 0.169
